assay-protocol: gradient 5% acetonitrile 3 min, to 50% in 2 min, to 85% in 15 min, held 3 min, 100 µL/min
cond: column: Zorbax Extend-C18 2.1 x 50 mm; eluents: water / acetonitrile, 0.1% formic acid
property-name: RP-LC retention time (s)
Report the figure in s without appending any unit label.

Quick one: RP-LC retention time for CCOC(=O)C1=C(CN2CCN(C)CC2)NC(=O)NC1c1cccc(OC)c1OC (stereo not given) ?
595

Quick one: RP-LC retention time for "CC(C)NCc1ccc(-c2cccc(Cl)c2)o1" ?
691

Quick one: RP-LC retention time for "CC(C)CN(Cc1cccnc1)C1CN(C(=O)NCc2ccccc2)C1" ?
627

Quick one: RP-LC retention time for C=C1[C@@H](C)[C@H]2[C@H](Cc3ccccc3)NC(=O)C23[C@H](OC(C)=O)/C=C/[C@](C)(O)C(=O)[C@@H](C)C/C=C/[C@H]3[C@@H]1O (stereo not given in full) ?
801

Quick one: RP-LC retention time for "O=C(Nc1nnc(-c2ccncc2)o1)c1cc(=O)c2ccccc2o1" ?
600

Quick one: RP-LC retention time for "Cc1noc(C)c1CCNC(=O)CCCn1c(=O)c2cccn2c2ccc(Br)cc21" ?
803

Quick one: RP-LC retention time for "O=C(Cn1nc2c3cc(-c4ccccc4)nn3ccn2c1=O)NCc1ccco1" ?
792

Quick one: RP-LC retention time for CCCS(=O)(=O)N1CCCC(c2nnc(-c3cccs3)o2)C1 (stereo not given) ?
749

Quick one: RP-LC retention time for "O=C(NC1CCCC1)C1CCN(S(=O)(=O)c2cc(C(=O)N3CCCC3)cs2)CC1" ?
644

Quick one: RP-LC retention time for "CC1CCN(CCNC(=O)c2nnc(-c3ccc(S(=O)(=O)N4CCOCC4)cc3)o2)CC1" ?
629
